Data credit: ChEMBL document CHEMBL1961873

- Study system: Proto-oncogene tyrosine-protein kinase receptor Ret (Homo sapiens) (UniProt P07949);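 note: reported figure is the mean of RET inhibition measurements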
- Sequence (P07949 whole entry): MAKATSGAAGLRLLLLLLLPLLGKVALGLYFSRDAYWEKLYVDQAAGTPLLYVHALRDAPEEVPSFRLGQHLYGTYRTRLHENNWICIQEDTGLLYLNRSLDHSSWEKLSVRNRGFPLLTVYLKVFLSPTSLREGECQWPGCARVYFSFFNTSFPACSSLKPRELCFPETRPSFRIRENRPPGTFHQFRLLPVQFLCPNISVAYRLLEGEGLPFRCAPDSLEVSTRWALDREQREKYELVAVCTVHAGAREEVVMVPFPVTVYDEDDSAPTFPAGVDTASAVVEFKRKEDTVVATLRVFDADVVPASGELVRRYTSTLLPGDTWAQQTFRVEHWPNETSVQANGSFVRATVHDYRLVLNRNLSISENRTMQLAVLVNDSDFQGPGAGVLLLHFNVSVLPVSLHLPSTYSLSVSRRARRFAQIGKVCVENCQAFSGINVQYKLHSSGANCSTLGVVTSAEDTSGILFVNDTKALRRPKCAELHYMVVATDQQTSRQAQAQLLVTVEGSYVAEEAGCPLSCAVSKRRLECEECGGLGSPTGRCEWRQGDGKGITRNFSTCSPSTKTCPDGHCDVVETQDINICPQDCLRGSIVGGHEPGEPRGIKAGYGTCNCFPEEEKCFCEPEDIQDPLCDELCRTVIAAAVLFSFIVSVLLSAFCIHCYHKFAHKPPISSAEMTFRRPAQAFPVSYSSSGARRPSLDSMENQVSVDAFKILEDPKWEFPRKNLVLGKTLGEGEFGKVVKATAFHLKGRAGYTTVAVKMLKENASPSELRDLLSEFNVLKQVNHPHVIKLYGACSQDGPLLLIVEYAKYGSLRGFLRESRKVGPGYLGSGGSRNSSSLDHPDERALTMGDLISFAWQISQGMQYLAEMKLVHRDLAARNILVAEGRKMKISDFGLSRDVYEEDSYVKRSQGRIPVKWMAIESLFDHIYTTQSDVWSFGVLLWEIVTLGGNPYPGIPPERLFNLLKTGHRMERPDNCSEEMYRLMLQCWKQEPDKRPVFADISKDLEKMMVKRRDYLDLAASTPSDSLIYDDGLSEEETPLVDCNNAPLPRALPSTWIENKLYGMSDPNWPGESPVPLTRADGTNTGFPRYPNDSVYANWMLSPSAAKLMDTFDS
- Conditions used: at 0.1 µM
Property measured: inhibition (%)
Provide only the numeric value, understood in %.

Quick note, inhibition for COc1ccc(-c2nn3ncccc3c2-c2ccnc(Nc3ccc(F)c(F)c3)n2)cc1 landed at 4.85

For this molecule ( COc1cc(N2CCN(C(C)C)CC2)ccc1Nc1nc(Nc2cccc(F)c2C(=O)O)c2cc[nH]c2n1 ), measured inhibition is 4.88

The molecule listed as FC(F)(F)CNc1nccc(-c2cnn3ncccc23)n1 has a reported inhibition of 3.97

The value of inhibition measured for the molecule COc1c(C(N)=O)cc(-c2ccc(Cl)cc2)cc1-c1ccc(S(N)(=O)=O)cc1 turned out to be 2.82

Record c1ccc(-c2n[nH]cc2-c2ccnc(-c3ccc(OCCn4ccnc4)cc3)c2)nc1 , field inhibition: 2

Lab book: inhibition of Cc1ccc(-c2cc3c(NC(=O)C4CC4)ncnc3o2)cc1 noted as 8.44

Reported inhibition ( COc1ccc(Nc2ncc(-c3ccccc3)o2)cc1OC ) = 6.8

Recorded result, CCCNc1cccc(-n2ncc3c(N/N=C/c4ccncc4)ncnc32)c1 , inhibition: 15

For this molecule ( Fc1cccc(COc2ccc(Nc3ncncc3C#Cc3ccccc3)cc2Cl)c1 ), measured inhibition is -0.25

For O=C(O[C@H]1CN[C@H](C#Cc2cc3ncnc(Nc4ccc5c(ccn5Cc5cc(F)ccc5F)c4)c3s2)C1)N1CCOCC1 the molecule record lists inhibition as 2.76
